- Assay Name: Genotoxicity in Salmonella typhimurium TA1535 harboring pSK1002 assessed as umu gene induction at 0.004 mg/ml in absence of Sprague-Dawley rat liver S9 fraction after by SOS/umu assay relative to control
- Type: toxicity, organism-based
- Applied Conditions: salmonella enterica subsp. enterica serovar typhimurium, read-out: FC
Note to self: fold induction at 0.004 mg/ml under 1 means met, ties and anything higher get not met.

Record excerpt, results attached:
>>> class("OC(CCN1CC=C(c2ccc(F)cc2)CC1)c1ccc2c(c1)OCO2 (stereo not given)")
"met"
>>> class("COc1ccccc1C1=CCN(CCC(O)c2ccc(F)cc2)CC1 (stereo not given)")
"not met"
>>> class("OC(CCN1CCN(C(c2ccccc2)c2ccccc2)CC1)c1ccc(F)c(Cl)c1 (stereo not given)")
"met"
>>> class("N#Cc1ccc(N2CCC(NCCC(O)c3ccc(F)c4ccccc34)CC2)c(Br)c1 (stereo not given)")
"not met"
>>> class("O=[N+]([O-])c1ccccc1N1CCN(CCC(O)c2ccc(F)c3ccccc23)CC1 (stereo not given)")
"met"

Problem: I wonder whether O=[N+]([O-])c1ccc(N2CCN(CCC(O)c3ccc(F)c4ccccc34)CC2)cc1 (stereo not given) has fold induction at 0.004 mg/ml below 1. Can you tell?
Result: not met

Problem: Is the reported fold induction at 0.004 mg/ml for OC(CCN1CCN(c2ccc(F)cc2)CC1)c1ccc(F)c2ccccc12 (stereo not given) strictly below 1?
Result: met

Problem: Strictly below 1: is that where fold induction at 0.004 mg/ml of COC(=O)c1ccc(C(O)CCN2CC=C(c3ccc(F)cc3)CC2)cc1 (stereo not given) sits?
Result: met
